Recorded SPOT signal as a fraction of Bim BH3's signal on the same receptor and array, one value per entry.
# target.desc: T1, Mcl-1, Q07820
# T1 chain: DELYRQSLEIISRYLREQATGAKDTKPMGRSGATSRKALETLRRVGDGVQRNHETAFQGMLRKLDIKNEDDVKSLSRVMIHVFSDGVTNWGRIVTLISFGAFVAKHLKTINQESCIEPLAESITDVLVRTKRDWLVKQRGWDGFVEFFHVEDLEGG
# experiment.notes: peptide SPOT array, c-Myc-tagged receptor at 1 uM or 100 nM, anti-c-Myc-Cy3
Answer with a bare number; do not write a unit.

The following binders have reported results that may help.
1. HTALENCASLLCIRADELQEALTSHC [MYO3A]    0.03
2. RVCPYYLSRNDKQQADIIFMPYNYLL [RTEL1]    1.1
3. GFANHDVVEVLRNAGQVVHLTLVRRK [INADL]    0.34
4. AIKWDPTGNLDASCSDDMTLKIWSMK [TBL1XR1]    0.03
5. QASREAGAAALRNVLQRLFENYQTQS [CCDC68]    0.2
6. FRLAQMCGLHDVVHADELEELINYYQ [CLTC]    0.02

Request: // lookup SPOT signal as a fraction of Bim BH3's signal on the same receptor and array for IIKDQLNVSNIDQVARHLRGLLEEEC [CCDC24]
Response: 0.02

Request: // lookup SPOT signal as a fraction of Bim BH3's signal on the same receptor and array for AEIELEYSRSLEKLAERFSSKIRSSR [SRGAP3]
Response: 0.07

Request: // lookup SPOT signal as a fraction of Bim BH3's signal on the same receptor and array for CGDLASLSIDIWTLLEEVDGRRLVVA [BIRC6]
Response: 0.03

Request: // lookup SPOT signal as a fraction of Bim BH3's signal on the same receptor and array for LQLHRVLPPDLKSLGDQYVKDEFRRH [ACN9]
Response: 0.1

Request: // lookup SPOT signal as a fraction of Bim BH3's signal on the same receptor and array for IQQDLGCGASDGVISDNLLVTGGQGC [SCAP]
Response: 0.01

Request: // lookup SPOT signal as a fraction of Bim BH3's signal on the same receptor and array for KIETTPESRYLAQILDSVSLTCSTTG [VCAM1]
Response: 0.04

Request: // lookup SPOT signal as a fraction of Bim BH3's signal on the same receptor and array for TRELQELARKLQELADASENLLTENT [TXNDC11]
Response: 0.01

Request: // lookup SPOT signal as a fraction of Bim BH3's signal on the same receptor and array for PFNKEELSAILKFGAEELFKEPEGEE [CHD1]
Response: 0.02
